Recorded values, source the supplement of paper PMC6555819.

# Tested on: PPARg:RXRa 270nM:90nM, anti-RXR (NR concentration 270 nM, RXRa partner concentration 90 nM)
# assay.method.text: PBM binding z-score (relative to random genomic background probes); higher = stronger binding; sequences stand for … in GC…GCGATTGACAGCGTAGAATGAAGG
Assign class by PBM binding z-score: not lower than 3 means 1; lower than 3 means 0.

Worked cases, answers included:
{"macromolecule.sequence": "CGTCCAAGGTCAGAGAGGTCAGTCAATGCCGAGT", "qualitative.label": 1}
{"macromolecule.sequence": "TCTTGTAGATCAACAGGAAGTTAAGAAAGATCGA", "qualitative.label": 0}
{"macromolecule.sequence": "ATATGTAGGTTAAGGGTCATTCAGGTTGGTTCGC", "qualitative.label": 1}

Q: Hi team, for `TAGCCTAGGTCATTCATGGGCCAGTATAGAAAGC` , is the recorded PBM binding z-score at or above 3?
A: 0

Q: Hi team, for `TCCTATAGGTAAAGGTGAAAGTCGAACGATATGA` , is the recorded PBM binding z-score at or above 3?
A: 1

Q: Hi team, for `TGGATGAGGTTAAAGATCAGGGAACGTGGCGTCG` , is the recorded PBM binding z-score at or above 3?
A: 1

Q: Hi team, for `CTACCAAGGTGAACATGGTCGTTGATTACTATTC` , is the recorded PBM binding z-score at or above 3?
A: 0

Q: Hi team, for `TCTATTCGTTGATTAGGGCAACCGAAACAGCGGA` , is the recorded PBM binding z-score at or above 3?
A: 0

Q: Hi team, for `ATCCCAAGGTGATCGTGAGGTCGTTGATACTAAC` , is the recorded PBM binding z-score at or above 3?
A: 0

Q: Hi team, for `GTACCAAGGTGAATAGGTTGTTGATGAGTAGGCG` , is the recorded PBM binding z-score at or above 3?
A: 0

====

# Tested on: VDR:RXRa (NR concentration 270 nM, RXRa partner concentration 90 nM)
# assay.method.text: PBM binding z-score (relative to random genomic background probes); higher = stronger binding; sequences stand for … in GC…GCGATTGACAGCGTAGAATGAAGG
Assign class by PBM binding z-score: not lower than 2 means true; lower than 2 means false.

{"macromolecule.sequence": "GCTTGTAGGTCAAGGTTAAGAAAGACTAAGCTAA", "assayed.system": "VDR:RXRa (NR concentration 270 nM, RXRa partner concentration 90 nM)", "qualitative.label": "true"}

Q: Hi team, for `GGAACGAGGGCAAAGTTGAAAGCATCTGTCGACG` , is the recorded PBM binding z-score at or above 2?
A: false

Q: Hi team, for `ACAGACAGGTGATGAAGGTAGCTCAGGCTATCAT` , is the recorded PBM binding z-score at or above 2?
A: false

Q: Hi team, for `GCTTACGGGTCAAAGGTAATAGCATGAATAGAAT` , is the recorded PBM binding z-score at or above 2?
A: true

====

# System: VDR homodimer (NR concentration 270 nM)
# assay.method.text: PBM binding z-score (relative to random genomic background probes); higher = stronger binding; sequences stand for … in GC…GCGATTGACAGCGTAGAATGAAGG
PBM binding z-score values by entry
Simply state the number, no unit and no words.

{"macromolecule.sequence": "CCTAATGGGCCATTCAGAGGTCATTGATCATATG", "measurement.label": "PBM binding z-score", "data.value": 3.03}
{"macromolecule.sequence": "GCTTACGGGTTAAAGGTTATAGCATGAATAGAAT", "measurement.label": "PBM binding z-score", "data.value": 0.558}
{"macromolecule.sequence": "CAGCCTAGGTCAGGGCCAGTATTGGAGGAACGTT", "measurement.label": "PBM binding z-score", "data.value": -0.444}
{"macromolecule.sequence": "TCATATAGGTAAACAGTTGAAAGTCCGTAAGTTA", "measurement.label": "PBM binding z-score", "data.value": 0.845}
{"macromolecule.sequence": "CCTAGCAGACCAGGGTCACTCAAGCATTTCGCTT", "measurement.label": "PBM binding z-score", "data.value": 1.37}

Q: State PBM binding z-score on VDR homodimer (NR concentration 270 nM). Entry: `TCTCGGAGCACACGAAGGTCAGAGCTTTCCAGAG`
A: -0.73

Q: State PBM binding z-score on VDR homodimer (NR concentration 270 nM). Entry: `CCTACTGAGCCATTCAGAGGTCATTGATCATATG`
A: 3.71

Q: State PBM binding z-score on VDR homodimer (NR concentration 270 nM). Entry: `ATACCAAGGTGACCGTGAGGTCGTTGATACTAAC`
A: 2.81

Q: State PBM binding z-score on VDR homodimer (NR concentration 270 nM). Entry: `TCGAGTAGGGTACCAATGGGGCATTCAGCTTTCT`
A: -0.697

Q: State PBM binding z-score on VDR homodimer (NR concentration 270 nM). Entry: `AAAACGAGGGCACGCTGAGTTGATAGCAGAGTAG`
A: 2.26

Q: State PBM binding z-score on VDR homodimer (NR concentration 270 nM). Entry: `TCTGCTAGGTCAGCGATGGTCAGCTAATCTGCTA`
A: -0.739

Q: State PBM binding z-score on VDR homodimer (NR concentration 270 nM). Entry: `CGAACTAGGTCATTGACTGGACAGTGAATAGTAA`
A: 0.943

Q: State PBM binding z-score on VDR homodimer (NR concentration 270 nM). Entry: `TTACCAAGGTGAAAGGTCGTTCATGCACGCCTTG`
A: 1.96

Q: State PBM binding z-score on VDR homodimer (NR concentration 270 nM). Entry: `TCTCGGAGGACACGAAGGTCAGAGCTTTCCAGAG`
A: 1.03

Q: State PBM binding z-score on VDR homodimer (NR concentration 270 nM). Entry: `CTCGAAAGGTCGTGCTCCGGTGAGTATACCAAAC`
A: 1.26

====

# Test system: LXRb:RXRa (NR concentration 270 nM, RXRa partner concentration 90 nM)
# assay.method.text: PBM binding z-score (relative to random genomic background probes); higher = stronger binding; sequences stand for … in GC…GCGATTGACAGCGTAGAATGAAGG
Categorize each record by its PBM binding z-score using group A (below 0.7), group B (0.7 to below 2), group C (2 or more)

Worked cases, answers included:
{"macromolecule.sequence": "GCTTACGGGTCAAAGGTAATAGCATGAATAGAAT", "qualitative.label": "group C"}
{"macromolecule.sequence": "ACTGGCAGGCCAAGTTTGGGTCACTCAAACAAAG", "qualitative.label": "group B"}
{"macromolecule.sequence": "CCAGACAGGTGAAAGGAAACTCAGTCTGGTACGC", "qualitative.label": "group A"}
{"macromolecule.sequence": "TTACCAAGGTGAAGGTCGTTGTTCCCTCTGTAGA", "qualitative.label": "group B"}
{"macromolecule.sequence": "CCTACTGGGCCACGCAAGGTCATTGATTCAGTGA", "qualitative.label": "group C"}
{"macromolecule.sequence": "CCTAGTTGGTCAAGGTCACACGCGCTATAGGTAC", "qualitative.label": "group C"}
{"macromolecule.sequence": "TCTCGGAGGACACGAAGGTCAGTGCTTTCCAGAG", "qualitative.label": "group B"}
{"macromolecule.sequence": "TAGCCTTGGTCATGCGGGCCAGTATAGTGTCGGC", "qualitative.label": "group A"}
{"macromolecule.sequence": "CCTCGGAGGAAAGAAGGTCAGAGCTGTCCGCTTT", "qualitative.label": "group B"}
{"macromolecule.sequence": "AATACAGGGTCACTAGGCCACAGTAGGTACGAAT", "qualitative.label": "group C"}

Q: Please let me know in which category the item `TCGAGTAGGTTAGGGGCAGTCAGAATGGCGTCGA` belongs.
A: group B

Q: Please let me know in which category the item `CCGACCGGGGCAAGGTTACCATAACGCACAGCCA` belongs.
A: group A

====

# Tested on: LXRa homodimer (NR concentration 270 nM)
# assay.method.text: PBM binding z-score (relative to random genomic background probes); higher = stronger binding; sequences stand for … in GC…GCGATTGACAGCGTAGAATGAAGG
Assign class by PBM binding z-score: not lower than -0.1 means T; lower than -0.1 means F.

Worked cases, answers included:
{"macromolecule.sequence": "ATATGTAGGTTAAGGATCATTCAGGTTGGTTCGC", "assayed.system": "LXRa homodimer (NR concentration 270 nM)", "qualitative.label": "T"}
{"macromolecule.sequence": "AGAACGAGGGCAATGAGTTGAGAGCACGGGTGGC", "assayed.system": "LXRa homodimer (NR concentration 270 nM)", "qualitative.label": "F"}

Q: Hi team, for `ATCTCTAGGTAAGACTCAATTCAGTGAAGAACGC` , is the recorded PBM binding z-score at or above -0.1?
A: T

Q: Hi team, for `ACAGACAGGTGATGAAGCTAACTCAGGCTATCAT` , is the recorded PBM binding z-score at or above -0.1?
A: F

Q: Hi team, for `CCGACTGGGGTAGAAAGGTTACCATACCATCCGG` , is the recorded PBM binding z-score at or above -0.1?
A: F

Q: Hi team, for `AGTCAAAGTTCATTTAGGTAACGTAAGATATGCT` , is the recorded PBM binding z-score at or above -0.1?
A: T
